# system: α-glucosidase (Saccharomyces cerevisiae)
# Construct: purchased Sigma-Aldrich Inc
# Sequence (P53341 whole entry): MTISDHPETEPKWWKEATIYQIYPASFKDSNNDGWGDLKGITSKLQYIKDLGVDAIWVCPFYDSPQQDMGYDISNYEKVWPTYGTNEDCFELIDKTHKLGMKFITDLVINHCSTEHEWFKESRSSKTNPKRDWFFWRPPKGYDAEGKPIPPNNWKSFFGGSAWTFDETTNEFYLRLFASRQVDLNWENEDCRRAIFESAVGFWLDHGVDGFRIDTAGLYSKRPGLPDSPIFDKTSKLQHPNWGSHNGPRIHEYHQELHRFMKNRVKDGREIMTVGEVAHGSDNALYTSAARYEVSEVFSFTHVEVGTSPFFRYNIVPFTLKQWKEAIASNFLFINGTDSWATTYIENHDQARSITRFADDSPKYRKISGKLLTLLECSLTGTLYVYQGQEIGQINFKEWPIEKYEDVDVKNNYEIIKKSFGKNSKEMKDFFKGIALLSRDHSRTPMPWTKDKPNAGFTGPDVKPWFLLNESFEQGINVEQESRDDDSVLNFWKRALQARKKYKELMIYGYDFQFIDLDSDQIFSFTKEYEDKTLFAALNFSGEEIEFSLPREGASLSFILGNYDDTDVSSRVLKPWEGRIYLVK
# run_description: α-Glucosidase inhibitory assay (pNPG hydrolysis)
# Assay type: biochemical
# measurement_context: read-out: α-Glucosidase Inhibition (%)
value_kind: inhibition at 100 µM (%)
Give bare numbers, in %.

Some entries whose results are on file:
smiles_input	value_kind	measurement_units	measured_result
CCCC[C@@H](CCCCCCCCCC(=O)OC)O[C@@H]1O[C@H](C)[C@H](O)[C@H](O)[C@H]1O[C@@H]1O[C@H](CO)[C@@H](O)[C@H](O[C@@H]2O[C@H](CO)[C@@H](O)[C@H](O)[C@H]2O)[C@H]1O[C@@H]1O[C@@H](C)[C@H](O)[C@@H](O)[C@H]1O	inhibition at 100 µM	%	49.4
CCCC[C@@H](CCCCCCCCCC(=O)OC)O[C@@H]1O[C@H](C)[C@H](O)[C@H](O)[C@H]1O[C@@H]1O[C@@H](C)[C@H](O[C@@H]2O[C@@H](C)[C@H](O[C@@H]3O[C@@H](C)[C@H](O)[C@@H](O)[C@H]3O)[C@@H](O[C@@H]3O[C@H](CO)[C@@H](O)[C@H](O)[C@H]3O)[C@H]2O)[C@@H](O)[C@H]1O	inhibition at 100 µM	%	66.5

Next, consider the following compound.
q: What value of inhibition at 100 µM has been reported for the following compound? CCCC[C@@H](CCCCCCCCCC(=O)OC)O[C@@H]1O[C@H](C)[C@H](O)[C@H](O)[C@H]1O[C@@H]1O[C@H](CO)[C@@H](O)[C@H](O[C@@H]2O[C@H](CO)[C@@H](O)[C@H](O)[C@H]2O)[C@H]1O[C@@H]1O[C@@H](C)[C@H](OC(=O)[C@H](C)[C@@H](C)O)[C@@H](O)[C@H]1O
a: 60.5
